# procedure_details: self-splicing fitness, log relative to wild type (ln ratio); higher = more splicing; Tetrahymena group I intron in knt gene, E. coli kanamycin selection, DiMSum; sequences stand for … in CUCUCU…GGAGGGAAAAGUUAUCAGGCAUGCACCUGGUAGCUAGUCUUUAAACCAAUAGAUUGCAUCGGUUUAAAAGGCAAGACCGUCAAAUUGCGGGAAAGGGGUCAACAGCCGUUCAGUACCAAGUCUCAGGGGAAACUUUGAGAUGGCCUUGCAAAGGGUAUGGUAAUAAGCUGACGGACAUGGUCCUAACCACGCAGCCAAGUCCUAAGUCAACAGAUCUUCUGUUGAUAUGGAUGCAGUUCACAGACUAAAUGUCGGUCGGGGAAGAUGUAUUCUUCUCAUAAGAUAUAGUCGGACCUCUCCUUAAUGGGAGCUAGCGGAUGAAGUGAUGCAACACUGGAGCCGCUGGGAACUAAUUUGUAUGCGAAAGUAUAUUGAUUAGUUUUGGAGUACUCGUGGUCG;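 also: selection with 25 µg/mL kanamycin versus none on LB agar overnight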
# assay_context: 37 °C
Readings of self-splicing fitness (ln) for the listed sequences
Provide a numeric answer; units are not to be included.

>  <construct_sequence>
CGAAAGCAAUAUUACGAUUA

>  <self-splicing fitness (ln)>
-1.06

$$$$
>  <construct_sequence>
AUUUAGCAAUAUUACGACCU

>  <self-splicing fitness (ln)>
0.114

$$$$
>  <construct_sequence>
GAUCAGCAAUAUUACGAAUC

>  <self-splicing fitness (ln)>
-2.61

$$$$
>  <construct_sequence>
AGUGAGCAAUAUUACGAGCG

>  <self-splicing fitness (ln)>
-0.0795

$$$$
>  <construct_sequence>
CCACAGCAAUAUUACGGUCU

>  <self-splicing fitness (ln)>
-1.87

$$$$

I would be grateful if you could share the reported self-splicing fitness (ln) for `GCAUAGCAAUAUUACGUCCU` .
-0.534
